Values compiled from patent US20250179032A1.

# ASSAY_SYSTEM: H. sapiens SLC2A9 variant 2 (GLUT9B) (Homo sapiens)
# Sequence (Q9NRM0 1-511 isoform Q9NRM0-2): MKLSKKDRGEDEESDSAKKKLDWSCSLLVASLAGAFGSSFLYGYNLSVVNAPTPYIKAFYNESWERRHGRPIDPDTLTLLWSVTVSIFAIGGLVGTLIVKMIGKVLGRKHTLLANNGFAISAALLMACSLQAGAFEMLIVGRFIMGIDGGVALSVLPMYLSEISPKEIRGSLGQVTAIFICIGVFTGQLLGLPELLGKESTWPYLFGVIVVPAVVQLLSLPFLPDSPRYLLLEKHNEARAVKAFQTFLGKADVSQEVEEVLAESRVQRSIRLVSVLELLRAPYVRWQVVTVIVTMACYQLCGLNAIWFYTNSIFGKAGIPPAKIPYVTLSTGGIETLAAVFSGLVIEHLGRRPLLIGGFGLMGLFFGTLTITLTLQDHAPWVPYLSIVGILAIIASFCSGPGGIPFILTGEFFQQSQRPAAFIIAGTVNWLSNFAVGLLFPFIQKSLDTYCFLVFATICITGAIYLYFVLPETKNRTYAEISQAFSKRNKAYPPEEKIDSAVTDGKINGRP
# TEST_NAME: GLUT9 functional assay: uric acid uptake in HEK293T cells, allantoin formation by MS/MS as proxy of GLUT9B inhibition
# Format: cell-based
# CONDITION_DETAILS: 15 minute assay; HEK293T cells stably expressing GLUT9B and transiently A. oryzae uricase; uric acid 0.3 mM, 37° C.; read-out: 15 min IC50
Item-by-item account of IC50

{"columns": ["QUERY_SMILES", "IC50"],
 "data": [
  ["O=C(O)C1CC2(CCN(c3nc(CCC(F)(F)F)cnc3-c3cc(F)c4occc4c3)CC2)C1", "< 500 nM"],
  ["COCCOc1ccc(-c2ncc(CCC(C)(F)F)nc2N2CCC(C(=O)O)CC2)cc1", "500 to 2000 nM"],
  ["O=C(O)C1CCN(c2nc(COCC(F)(F)F)cnc2-c2ccc(OCC3CC3)cc2)CC1", "> 2000 nM"],
  ["CCCCc1cnc(-c2ccc(OC)cc2)c(N2CCC(F)(C(=O)O)CC2)n1", "< 500 nM"],
  ["O=C(O)C1(O)CCN(c2nc(CCCC(F)(F)F)cnc2-c2cc(F)c3occc3c2)CC1", "< 500 nM"],
  ["CCCCc1cnc(-c2ccc(OCCN(C)C)cc2)c(N2CCC(C(=O)O)CC2)n1", "> 2000 nM"],
  ["O=C(O)C1CCN(c2nc(CCCC(F)(F)F)cnc2-c2ccc(OC3CC3)cc2)CC1", "500 to 2000 nM"],
  ["COCCOc1ccc(-c2ncc(CCCCC(F)(F)F)nc2N2CCC(C(=O)O)CC2)cc1", "< 500 nM"],
  ["CC(F)(F)CCc1cnc(-c2ccc3occc3c2)c(N2CCC(C(=O)O)CC2)n1", "< 500 nM"],
  ["COc1ccc(-c2ncc(COCC(F)(F)F)nc2N2CCC(C(=O)O)CC2)cc1", "> 2000 nM"],
  ["CCCCc1cnc(-c2ccc(OC)cc2)c(-c2csc(C(=O)O)c2)c1", "500 to 2000 nM"],
  ["O=C1COc2ccc(-c3ncc(CCCC(F)(F)F)nc3N3CCC(C(=O)O)CC3)cc2N1", "> 2000 nM"],
  ["CCCCc1cnc(-c2ccc(OC)cc2)c(N2CC3(CC(C(=O)O)C3)C2)n1", "500 to 2000 nM"],
  ["COCCOCCCc1cnc(-c2cc(F)c3occc3c2)c(N2CCC(C(=O)O)CC2)n1", "500 to 2000 nM"],
  ["O=C(O)C1CCN(c2nc(CCCC(F)(F)F)cnc2-c2cnc3occc3c2)CC1", "< 500 nM"],
  ["COc1ccc(-c2ncc(CCC(F)(F)F)nc2N2CCC(OCC(=O)O)CC2)cc1", "< 500 nM"],
  ["COCCOc1ccc(-c2ncc(CCS(C)(=O)=O)nc2N2CCC(C(=O)O)CC2)cc1", "> 2000 nM"],
  ["O=C(O)C1CCN(c2nc(COCC(F)(F)F)cnc2-c2ccc(Cl)c(OC(F)(F)F)c2)CC1", "> 2000 nM"],
  ["CCCCc1cnc(-c2ccc3cc[nH]c3c2)c(N2CCC(C(=O)O)CC2)n1", "500 to 2000 nM"]
]}
